# subject of test: ENPP1 (Homo sapiens)
# measurement protocol: ENPP1 enzyme assay with AMP-pNP substrate (hydrolysis of ATP analog)
# Type: biochemical
# assay conditions: AMP-pNP substrate (ATP analog); Ki from IC50 by Cheng-Prusoff; read-out: ENPP1 Inhibition _AMP-pNP: Ki
Listed below: Ki values for each entry.

| mol | Ki |
| --- | --- |
| COc1cc2nccc(-n3ccc4cc(NS(N)(=O)=O)ccc43)c2cc1OC | > 1 µM |
| COc1cc2nccc(-c3ccc4c(c3)CCN(S(N)(=O)=O)C4)c2cc1OC | > 1 µM |
| COc1ccc2c(-c3ccc(CNS(N)(=O)=O)cc3Cl)ccnc2c1 | > 1 µM |
| COc1cc2ncnc(-c3ccc(CN(C4CC4)S(N)(=O)=O)cc3)c2cc1OC | 0.1 to 1 µM |
| COc1cc2nccc(OCc3ccc(NS(N)(=O)=O)cc3)c2cc1OC | > 1 µM |
| COc1ccc2ncnc(NCc3ccc(S(N)(=O)=O)cc3)c2c1 | 0.1 to 1 µM |
| COc1cc2nccc(N3CCc4cc(NS(N)(=O)=O)ccc43)c2cc1OC | 0.1 to 1 µM |
| COc1cc2ncnc(N3CCC(CCN)CC3)c2cc1OC | > 1 µM |
| COc1cc2nccc(Nc3ccc(CC(=O)NO)cc3)c2cc1OC | < 0.1 µM |

====

Substrate Selectivity: Ki_AMP-pNP/Ki_cGAMP: recorded values
# subject of test: ENPP1 (Homo sapiens, UniProt P22413)
# measurement protocol: Substrate selectivity ratio, inhibition of cGAMP hydrolysis versus ATP hydrolysis
# Assay type: biochemical
# assay conditions: ratio Ki AMP-pNP / Ki cGAMP
quantity name: Substrate Selectivity: Ki_AMP-pNP/Ki_cGAMP

| molecule | modifier sign | measured value |
| --- | --- | --- |
| COc1cc2ncc(C3CC3)c(-c3ccc4c(c3)CN(S(N)(=O)=O)CC4)c2cc1OC | = | 5.4 |
| COc1cc2ncnc(NC(c3ccc(NS(N)(=O)=O)cc3)C3CC3)c2cc1OC (stereo not drawn) | > | 87.7 |
| COc1cc2ncnc(-c3ccc4c(c3)CC(NS(N)(=O)=O)C4)c2cc1OC (stereo not drawn) | = | 21.9 |
| COc1cc2ncnc(N3CCC(CCNS(N)(=O)=O)CC3)c2cc1Cl | = | 6.9 |
| COc1cc2nccc(N3CC4CN(S(N)(=O)=O)CC4C3)c2cc1OC (stereo not drawn) | = | 10.5 |
| NS(=O)(=O)Nc1ccc(Nc2ncnc3ncccc23)cc1 | > | 82.4 |
| COc1cc2ncnc(N3CCC(CCn4nnc(N)n4)CC3)c2cc1OC | > | 45.7 |
| COc1cc2ncnc(N3CCC(CCNS(=O)(=O)NC(C)=O)CC3)c2cc1OC | > | 64.2 |
| COc1ccc2c(-c3ccc(CNS(N)(=O)=O)s3)ccnc2c1 | = | 34 |

====

# subject of test: ENPP1 (Homo sapiens, UniProt P22413)
# measurement protocol: Indirect quantitation of 2',3'-cGAMP hydrolysis (AMP-Glo Assay kit)
# Format: biochemical
# assay conditions: cGAMP substrate; Ki from IC50 by Cheng-Prusoff; read-out: ENPP1 Inhibition -cGAMP: Ki

| mol | Ki |
| --- | --- |
| Cc1cc(N2CCC(CCNS(N)(=O)=O)CC2)ncn1 | > 1 µM |
| COc1cnc(C(=O)N2CCC(CCNS(N)(=O)=O)CC2)cc1OC | > 1 µM |
| COc1cc2ncc(C#N)c(Oc3ccc(S(N)(=O)=O)cc3)c2cc1F | < 0.1 µM |
| COc1cc2c(NCc3ccc(S(N)(=O)=O)cc3)ncnc2cn1 | 0.1 to 1 µM |
| COc1cc2ncnc(N3CCC(CCNS(=O)(=O)C(F)(F)F)CC3)c2cc1OC | 0.1 to 1 µM |
| COc1cc2ncnc(N3CCC(CNc4nc5ccccc5[nH]4)CC3)c2cc1OC | > 1 µM |
| COc1ccc2ncnc(N3CCC4(CC3)CCN(S(N)(=O)=O)C4)c2c1 | < 0.1 µM |
| COc1ccc2ncnc(-c3ccc(CNS(N)(=O)=O)cc3)c2c1 | 0.1 to 1 µM |
| COc1cc2nccc(Oc3ccc(NS(N)(=O)=O)nc3)c2cc1OC | > 1 µM |

====

# subject of test: ENPP1 (Homo sapiens, UniProt P22413)
# measurement protocol: Indirect quantitation of 2',3'-cGAMP hydrolysis (AMP-Glo Assay kit)
# Type: biochemical
# assay conditions: cGAMP substrate; Ki from IC50 by Cheng-Prusoff; read-out: ENPP1 Inhibition -cGAMP: Ki
quantity name: Ki

| mol | quantity name | measured value |
| --- | --- | --- |
| Cn1cc(Br)c2ncnc(N3CCC(CCNS(N)(=O)=O)CC3)c21 | Ki | 100 to 1000 nM |
| NS(=O)(=O)NCCC1CCN(c2ccnc(Nc3ccncc3)n2)CC1 | Ki | > 1000 nM |
| COc1ccc2c(-c3ccc(C(C)(C)NS(N)(=O)=O)cc3)ccnc2c1 | Ki | < 100 nM |
| COc1cc2ncc(C#N)c(Nc3ccc(NS(N)(=O)=O)cc3)c2cc1OC | Ki | < 100 nM |
| COc1cc2nccc(-n3ccc4cc(NS(N)(=O)=O)ccc43)c2cc1OC | Ki | < 100 nM |
| COc1cc2nccc(-c3ccc(CN(C)S(N)(=O)=O)cc3)c2cc1OC | Ki | < 100 nM |
| COc1cc2ncnc(N3CCC(CCN)CC3)c2cc1OC | Ki | < 100 nM |
| COc1ccc2c(-c3ccc(CNS(N)(=O)=O)cc3)ncnc2c1 | Ki | < 100 nM |
| COc1cc2ncc(C#N)c(N3CCC4(CC3)CCN(S(N)(=O)=O)C4)c2cc1OC | Ki | < 100 nM |

====

# subject of test: ENPP1 (Homo sapiens, UniProt P22413)
# measurement protocol: Substrate selectivity ratio, inhibition of cGAMP hydrolysis versus ATP hydrolysis
# Type: biochemical
# assay conditions: ratio Ki AMP-pNP / Ki cGAMP
Could you label it Met if measured Substrate Selectivity: Ki_AMP-pNP/Ki_cGAMP is 30 or higher, and Not met otherwise?

| compound | subject of test | group |
| --- | --- | --- |
| COc1ccc2c(N3CCC4(CC3)CCN(S(N)(=O)=O)C4)ncnc2c1 | ENPP1 (Homo sapiens, UniProt P22413) | Met |
| COc1ccc2c(N3CCC4(CC3)CCN(S(N)(=O)=O)C4)c(C#N)cnc2c1 | ENPP1 (Homo sapiens, UniProt P22413) | Met |
| COc1cc2nccc(-n3ccc4cc(NS(N)(=O)=O)ccc43)c2cc1OC | ENPP1 (Homo sapiens, UniProt P22413) | Met |
| COc1cc(F)c2c(N3CCc4cc(NS(N)(=O)=O)ccc43)ccnc2c1 | ENPP1 (Homo sapiens, UniProt P22413) | Met |
| COc1ccc2ncc(C#N)c(-c3ccc(CNS(N)(=O)=O)cc3)c2c1 | ENPP1 (Homo sapiens, UniProt P22413) | Met |
| COc1ccc2c(N3CCc4cc(NS(N)(=O)=O)cc(F)c43)ccnc2c1 | ENPP1 (Homo sapiens, UniProt P22413) | Not met |
| COc1cc2ncnc(NC(C)c3ccc(NS(N)(=O)=O)cc3)c2cc1F (stereo not drawn) | ENPP1 (Homo sapiens, UniProt P22413) | Met |
| CCN(C)S(=O)(=O)NCCC1CCN(c2ncnc3cc(OC)c(OC)cc23)CC1 | ENPP1 (Homo sapiens, UniProt P22413) | Met |
| COc1cc2ncnc(-c3ccc(CNS(N)(=O)=O)c(F)c3)c2cc1OC | ENPP1 (Homo sapiens, UniProt P22413) | Met |
| COc1cc2nccc(Oc3cc(F)c(NS(N)(=O)=O)cc3F)c2cc1OC | ENPP1 (Homo sapiens, UniProt P22413) | Met |
| COc1ccc2ncnc(NCc3ccc(S(N)(=O)=O)cc3)c2c1 | ENPP1 (Homo sapiens, UniProt P22413) | Not met |
| COc1ccc2c(Oc3ccc(N)cc3)ccnc2c1 | ENPP1 (Homo sapiens, UniProt P22413) | Met |
| COc1ccc2c(NC(C)c3ccc(NS(N)(=O)=O)cc3)ncnc2c1 (stereo not drawn) | ENPP1 (Homo sapiens, UniProt P22413) | Not met |
| COc1cc2ncnc(N3CCc4c(cccc4NS(N)(=O)=O)C3)c2cc1OC | ENPP1 (Homo sapiens, UniProt P22413) | Met |

====

# subject of test: ENPP1 (Homo sapiens, UniProt P22413)
# Sequence (P22413 1-925): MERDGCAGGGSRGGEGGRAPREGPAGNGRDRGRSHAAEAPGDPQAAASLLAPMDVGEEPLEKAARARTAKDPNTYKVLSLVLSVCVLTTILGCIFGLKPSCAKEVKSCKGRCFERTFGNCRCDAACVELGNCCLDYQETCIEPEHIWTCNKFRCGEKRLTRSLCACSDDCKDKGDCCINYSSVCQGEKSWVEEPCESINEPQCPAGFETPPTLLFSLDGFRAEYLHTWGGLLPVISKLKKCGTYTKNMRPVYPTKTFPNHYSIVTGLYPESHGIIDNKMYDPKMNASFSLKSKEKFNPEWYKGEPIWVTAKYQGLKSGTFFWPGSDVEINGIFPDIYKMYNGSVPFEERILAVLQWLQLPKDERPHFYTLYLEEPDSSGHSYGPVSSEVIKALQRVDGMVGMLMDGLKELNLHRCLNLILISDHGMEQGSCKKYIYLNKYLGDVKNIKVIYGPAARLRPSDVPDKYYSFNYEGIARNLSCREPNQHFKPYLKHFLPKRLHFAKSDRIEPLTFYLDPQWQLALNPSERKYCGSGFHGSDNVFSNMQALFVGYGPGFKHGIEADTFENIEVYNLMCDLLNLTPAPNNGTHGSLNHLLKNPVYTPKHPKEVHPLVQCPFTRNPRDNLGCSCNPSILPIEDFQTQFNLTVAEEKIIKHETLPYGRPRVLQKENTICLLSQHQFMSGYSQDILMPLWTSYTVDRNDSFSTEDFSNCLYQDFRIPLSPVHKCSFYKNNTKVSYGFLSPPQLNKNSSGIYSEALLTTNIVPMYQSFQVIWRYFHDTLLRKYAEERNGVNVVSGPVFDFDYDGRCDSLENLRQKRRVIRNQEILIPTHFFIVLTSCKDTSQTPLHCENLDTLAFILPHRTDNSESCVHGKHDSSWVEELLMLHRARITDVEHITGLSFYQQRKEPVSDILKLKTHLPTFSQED
# measurement protocol: Indirect quantitation of 2',3'-cGAMP hydrolysis (AMP-Glo Assay kit)
# Assay type: biochemical
# assay conditions: cGAMP substrate; Ki from IC50 by Cheng-Prusoff; read-out: ENPP1 Inhibition -cGAMP: Ki

| compound | Ki |
| --- | --- |
| CNC(=O)c1ccc2c(N3CCC(CCNS(N)(=O)=O)CC3)ncnc2c1 | > 1000 nM |
| COc1ccc2nccc(Oc3ccc(S(N)(=O)=O)cc3)c2c1 | < 100 nM |
| Cc1ncnc(N2CCC(CCNS(N)(=O)=O)CC2)c1C | > 1000 nM |
| NS(=O)(=O)N1CCC2(CCN(c3ccnc4cc(OC(F)F)ccc34)CC2)C1 | 100 to 1000 nM |
| COc1cc2nccc(NCc3ccc(S(N)(=O)=O)cc3)c2cc1F | < 100 nM |
| Cn1c(=O)[nH]c2ncnc(N3CCC(CCNS(N)(=O)=O)CC3)c21 | < 100 nM |
| COc1cc(C(=O)N2CCC(CCNS(N)(=O)=O)CC2)c(N(C)C)cc1OC | > 1000 nM |
| COc1ccc2c(-c3ccc4c(c3)CN(S(N)(=O)=O)CC4)c(C(F)(F)F)cnc2c1 | 100 to 1000 nM |
| COc1ccc(-c2cc(N3CCC(CCNS(N)(=O)=O)CC3)ncn2)cc1OC | > 1000 nM |
| COc1cc2nccc(-c3ccc(CN(O)C=O)cc3)c2cc1OC | < 100 nM |
| COc1cc2nccc(Oc3ccc(S(N)(=O)=O)cc3)c2cc1F | < 100 nM |
| COc1ccc2c(N3CCC4(CC3)CCN(S(N)(=O)=O)C4)ccnc2c1 | < 100 nM |
| COc1cc2ncc(C#N)c(N3CCC(CCNS(N)(=O)=O)CC3)c2cn1 | 100 to 1000 nM |
| COc1ccc2c(-c3ccc4c(c3)CN(S(N)(=O)=O)CC4)ccnc2n1 | < 100 nM |
| COc1ccc2c(Oc3ccc(NS(N)(=O)=O)cc3C#N)ccnc2c1 | 100 to 1000 nM |
| COc1ccc2c(NC(C)c3ccc(NS(N)(=O)=O)cc3)ncnc2c1 (stereo not drawn) | < 100 nM |
| COc1cc2ncnc(NC3CCC(NS(N)(=O)=O)CC3)c2cc1OC (stereo not drawn) | < 100 nM |
| COc1ccc2c(Oc3ccc(N)cc3)ccnc2c1 | 100 to 1000 nM |
